Here, each record is paired with measured growth AUC data.
- System: Bacteroides caccae
- protocol.details: growth AUC relative to DMSO control (median of replicates) (fraction); higher = more growth (less inhibition), active = hit call of the paper
- measurement.parameters: 20 µM; 24 h
measurement.kind: growth AUC

| compound | measured.number |
| --- | --- |
| CC(C)(COCc1cccc(Oc2ccccc2)c1)c1ccc(OC(F)(F)Br)cc1 | 0.982 |
| COP(=S)(OC)Oc1cc(Cl)c(I)cc1Cl | 0.999 |
| CC1(C)CN=C(NN=C(/C=C/c2ccc(C(F)(F)F)cc2)/C=C/c2ccc(C(F)(F)F)cc2)NC1 | 0.961 |
| NC(=O)/N=C1/SCCN1Cc1ccc(Cl)nc1 | 1.01 |
| COP(=O)(OC)OC(Br)C(Cl)(Cl)Br (stereo not drawn) | 0.987 |
| O=[N+]([O-])C(Br)(CO)CO | 0.987 |
| CNC(=O)N(C)c1nnc(C(C)(C)C)s1 | 1.02 |
| OC(c1ccc(Cl)cc1)(c1ccc(Cl)cc1)C(Cl)(Cl)Cl | 0.962 |
| CC(CCl)OP(=O)(OC(C)CCl)OC(C)CCl (mixture of isomers) | 1 |
| CCOP(=S)(OCC)Oc1cc(C)nc(C(C)C)n1 | 1.02 |
| CCOC(=O)CC(SP(=O)(OC)OC)C(=O)OCC (stereo not drawn) | 0.989 |
| CN(C)C(CSC(N)=O)CSC(N)=O.Cl | 0.993 |
| CN(C)C(CSS(=O)(=O)[O-])CSS(=O)(=O)[O-].[Na+].[Na+] | 0.916 |
